System: HL-60
Assay: NCI tumour cell line growth inhibition, 48 h
Activity calls are given as the source filed them. Cut-off read from the data, not from the text of the source: active = GI50 up to about 1.1 µM and inactive = higher.
Bench note: report the call from active, inactive

Per the records of this test, what outcome belongs to CC(=O)OC(CCC1(C)OC1COc1ccc(CCNC(=O)C=C(C)C)cc1)C(C)(C)OC(C)=O (stereo not drawn) ? inactive

Per the records of this test, what outcome belongs to C/C(=N\Nc1nc2cc(C(F)(F)F)ccc2s1)c1ccccn1 ? active

Per the records of this test, what outcome belongs to Cc1ncc(CCl)c2c1OC(C)(C)OC2 ? inactive

Per the records of this test, what outcome belongs to CN(C)CC(CN(C)C)c1ccccn1 ? inactive

Per the records of this test, what outcome belongs to CCOC(=O)CCC(C(=O)OCC)n1nnc2ccc(Nc3c(C)[n+]([O-])c4cc(F)c(OCC)cc4[n+]3[O-])cc21 (stereo not drawn) ? inactive

Per the records of this test, what outcome belongs to CC(NC(=O)C(C)C(=O)NCc1ccc(C(F)(F)F)cc1)C(N)=O (stereo not drawn) ? inactive

Per the records of this test, what outcome belongs to Cc1cc(NS(=O)(=O)c2ccc(NC(=O)c3cccn4c(=O)c5ccccc5nc34)cc2)no1 ? inactive

Per the records of this test, what outcome belongs to COC(=O)c1c(-c2ccc(Cl)cc2)cc2c3ccccc3n(C)c2c1C(=O)OC ? inactive

Per the records of this test, what outcome belongs to CC12CCC(Br)C(C)(C)C1CC=C1C(=O)OCC1O2 (stereo not drawn) ? inactive

Per the records of this test, what outcome belongs to CCOC(=O)c1c(-c2ccc(O)c(OC)c2)c(C#N)c(=S)n(C2OC(CO)C(O)C(O)C2O)c1-c1ccccc1 (stereo not drawn) ? inactive

Per the records of this test, what outcome belongs to O=c1cc(N2CCCC2)[nH]c(=O)n1-c1cccc(Cl)c1 ? inactive

Per the records of this test, what outcome belongs to CN(C)CCNC(=O)c1cc([N+](=O)[O-])cc2c1Oc1ccccc1O2 ? inactive

Per the records of this test, what outcome belongs to COc1cc2ccc(/C=C\[N+](=O)[O-])cc2cc1OC ? inactive

---

Would you kindly list GI50 for each of these compounds?
System: Malme-3M
Experiment: NCI tumour cell line growth inhibition, 48 h
Calls of active or inactive are those of the source. No stated cut-off is given here; in the data, active = GI50 up to about 1.1 µM and inactive = higher.

Given C[N+](C)(C)CC(=O)N/N=C(/CC1OC(=O)c2ccccc21)c1ccccc1O (stereo not given) , state its recorded GI50. 59.8 µM (inactive)

Given O=C(O)c1c(-c2cccc3ccccc23)sc(-c2cccc3ccccc23)c1C(=O)O , state its recorded GI50. > 100 µM (inactive)

Given CCNC(=O)Cc1nc2c(N)ncnc2n1C1OC(CO)C(O)C1O (stereo not given) , state its recorded GI50. > 100 µM (inactive)

Given CC1=C(O)C(=O)C2C(=O)C1C1Cc3ccccc3C21 (stereo not given) , state its recorded GI50. > 100 µM (inactive)

Given O=C(Cc1ccccc1)Nn1c(-c2ccccc2)nc2ccccc2c1=O , state its recorded GI50. > 100 µM (inactive)

---

Would you kindly list GI50 for each of these compounds?
System: HCT-116
Assay: NCI tumour cell line growth inhibition, 48 h
Activity calls are given as the source filed them. Cut-off read from the data, not from the text of the source: active = GI50 up to about 1.1 µM and inactive = higher.

Given CCOC(=O)/C(=C/c1ccccn1)C(=O)c1ccccc1 , state its recorded GI50. 13.8 µM (inactive)

Given Cc1cc(NS(=O)(=O)c2ccc(NC(=O)c3cccn4c(=O)c5ccccc5nc34)cc2)no1 , state its recorded GI50. > 100 µM (inactive)

Given O=[N+]([O-])c1ncc(N(CCO)CCO)s1 , state its recorded GI50. 37.1 µM (inactive)

Given Cc1ccc(C)c(C(=N)c2ccccc2Cc2ccccc2)c1 , state its recorded GI50. 12.6 µM (inactive)

Given CCC(/C=C/c1ccccc1)=N\NC(=S)N/N=C(/C=C/c1ccccc1)CC , state its recorded GI50. 19 µM (inactive)

Given COC(=O)C1=C(C)N2[C@H](C(=O)O)CO[C@@]2(C)[C@H](C(=O)OC)[C@H]1c1cccc([N+](=O)[O-])c1 , state its recorded GI50. > 100 µM (inactive)

Given Cc1c(O)c(OC2OC(CO)C(O)C(O)C2O)cc2c1CC[C@@H]1C2(C)C(=O)C[C@]2(C)[C@@H]([C@@](C)(O)C3CCC(C)(C)O3)[C@H](O)C[C@@]12C (some centres undefined) , state its recorded GI50. > 100 µM (inactive)

Given O=C1NC(N2CCOCC2)=N/C1=C\c1ccccc1 , state its recorded GI50. > 100 µM (inactive)

Given CC(=O)Oc1ccc(C)c2c1[C@H]1CC[C@]3(C)[C@@H](OC(C)=O)CC[C@H]3[C@@H]1CC2 , state its recorded GI50. 17 µM (inactive)

Given COC(=O)C1Cc2c([nH]c3ccccc23)-c2[nH]c3ccccc3c2CC(NC(C)=O)C(=O)NCC(=O)NCC(=O)N1 (centres undefined) , state its recorded GI50. > 100 µM (inactive)

Given O=C(N/C(=C\c1ccc(/C=C(\NC(=O)c2ccccc2)c2nc3cc(Cl)ccc3[nH]2)cc1)c1nc2cc(Cl)ccc2[nH]1)c1ccccc1 , state its recorded GI50. 17.7 µM (inactive)

Given COC(=O)C1=C(O)C(C(=O)OC)[C@]2(O)[C@H](C(=O)OC)[C@H]1C[C@@H](c1ccc(Cl)cc1Cl)[C@H]2C(=O)OC (some centres undefined) , state its recorded GI50. 6.3 µM (inactive)

Given CCNC(=O)Cc1nc2c(N)ncnc2n1C1OC(CO)C(O)C1O (centres undefined) , state its recorded GI50. > 100 µM (inactive)

Given Cc1cc(=O)oc2c(C3=NN(C=O)C(c4ccccc4)C3)c(O)ccc12 (centres undefined) , state its recorded GI50. 81.1 µM (inactive)
